Biological target: ERBB1 (Homo sapiens, UniProt P00533)
Sequence (P00533 25-1210): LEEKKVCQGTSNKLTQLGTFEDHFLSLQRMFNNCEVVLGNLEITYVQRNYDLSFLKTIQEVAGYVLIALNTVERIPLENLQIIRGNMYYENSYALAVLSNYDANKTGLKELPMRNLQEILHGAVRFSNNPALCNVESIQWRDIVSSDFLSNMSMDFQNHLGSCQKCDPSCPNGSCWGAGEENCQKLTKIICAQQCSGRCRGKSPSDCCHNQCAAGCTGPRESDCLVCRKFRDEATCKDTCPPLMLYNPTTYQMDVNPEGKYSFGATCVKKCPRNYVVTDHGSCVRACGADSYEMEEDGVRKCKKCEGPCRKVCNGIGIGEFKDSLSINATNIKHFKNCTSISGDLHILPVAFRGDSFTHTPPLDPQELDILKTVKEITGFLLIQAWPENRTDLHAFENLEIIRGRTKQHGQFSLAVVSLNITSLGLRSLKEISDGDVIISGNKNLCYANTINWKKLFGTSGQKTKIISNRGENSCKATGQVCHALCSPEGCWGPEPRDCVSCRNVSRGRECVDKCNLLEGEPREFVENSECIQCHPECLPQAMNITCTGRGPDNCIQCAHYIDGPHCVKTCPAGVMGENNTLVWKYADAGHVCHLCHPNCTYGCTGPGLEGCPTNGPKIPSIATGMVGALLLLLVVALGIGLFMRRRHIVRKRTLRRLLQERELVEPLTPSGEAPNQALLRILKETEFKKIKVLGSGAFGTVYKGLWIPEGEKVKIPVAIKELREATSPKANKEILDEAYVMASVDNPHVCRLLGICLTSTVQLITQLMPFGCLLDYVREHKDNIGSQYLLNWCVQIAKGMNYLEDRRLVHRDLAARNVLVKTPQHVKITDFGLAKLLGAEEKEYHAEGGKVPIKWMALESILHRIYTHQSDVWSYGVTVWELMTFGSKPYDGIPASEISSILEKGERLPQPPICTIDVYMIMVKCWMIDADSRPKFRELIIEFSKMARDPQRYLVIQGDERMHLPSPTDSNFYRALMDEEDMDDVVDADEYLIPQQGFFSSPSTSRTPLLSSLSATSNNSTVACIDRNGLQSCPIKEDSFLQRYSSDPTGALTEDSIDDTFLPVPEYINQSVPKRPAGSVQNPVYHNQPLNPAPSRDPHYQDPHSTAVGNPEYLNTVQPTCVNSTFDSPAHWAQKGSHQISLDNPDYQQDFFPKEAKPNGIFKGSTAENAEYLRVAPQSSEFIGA
pIC50: −log10 of the molar value.

- MOLECULE: "COCCNCc1ccc(-c2cc3nccc(Oc4ccc(NC(=O)C5(C(=O)Nc6ccc(F)cc6)CC5)cc4F)c3s2)nc1 [MGCD516, Sitravatinib]"
  pIC50: "< 5.30"

* * *

Target: YES (Homo sapiens, UniProt P07947)
Sequence (P07947 whole entry): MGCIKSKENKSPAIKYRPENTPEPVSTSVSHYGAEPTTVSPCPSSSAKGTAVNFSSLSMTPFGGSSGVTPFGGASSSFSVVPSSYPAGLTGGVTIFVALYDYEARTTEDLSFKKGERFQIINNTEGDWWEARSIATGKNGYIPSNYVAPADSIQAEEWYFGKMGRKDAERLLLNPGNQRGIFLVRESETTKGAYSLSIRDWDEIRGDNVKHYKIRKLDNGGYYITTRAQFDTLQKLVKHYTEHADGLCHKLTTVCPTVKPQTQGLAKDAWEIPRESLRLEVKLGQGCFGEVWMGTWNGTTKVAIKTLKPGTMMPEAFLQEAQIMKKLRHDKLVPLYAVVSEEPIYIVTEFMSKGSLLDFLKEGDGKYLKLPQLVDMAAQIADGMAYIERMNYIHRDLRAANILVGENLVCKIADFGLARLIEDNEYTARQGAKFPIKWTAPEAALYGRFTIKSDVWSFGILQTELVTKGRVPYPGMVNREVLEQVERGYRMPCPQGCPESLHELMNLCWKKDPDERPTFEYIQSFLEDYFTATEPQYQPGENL
QUANTITY MEASURED: IC50 (nM)

- STRUCTURE STRING: "COCCNCc1ccc(-c2cc3nccc(Oc4ccc(NC(=O)C5(C(=O)Nc6ccc(F)cc6)CC5)cc4F)c3s2)nc1"
  QUANTITY MEASURED: "IC50"
  MEASURE UNIT: "nM"
  RESULT NUMBER: 298
